Tested on: K562
Assay: NCI tumour cell line growth inhibition, 48 h
The source made the active and inactive calls. Rule as the data show it: active = GI50 up to about 1.1 µM and inactive = higher.
# output must be one of t (active), f (inactive)

COc1cccc(-c2nc(N)c(C#N)c3c2CCS(=O)(=O)c2ccc(C)cc2-3)c1 | f
O=C(CN1CCCC1)Nc1ccc2sc3ccccc3c(=O)c2n1 | f
COP(=O)(OC)C(=O)N1N(c2ccc([N+](=O)[O-])cc2)C(=O)C(C)NC1(NNc1ccc([N+](=O)[O-])cc1)P(=O)(OC)OC (centres undefined) | f

Q. I would be grateful if you could indicate the recorded call for "O=C(/C=C/c1ccc2ccccc2c1)NCc1ccc(C(=O)NCCc2ccccc2)cc1" .
A. f

Q. I would be grateful if you could indicate the recorded call for "Nc1ccc(-c2nc3ccccc3s2)cc1I" .
A. f

Q. I would be grateful if you could indicate the recorded call for "COC(=O)CNC(=O)CSc1nnc(COc2ccc(Cl)cc2)n1-c1ccccc1" .
A. f

###

Reported values of GI50 for individual entries
System: UACC-257
Assay: NCI tumour cell line growth inhibition, 48 h
Activity calls are given as the source filed them. Rule as the data show it: active = GI50 up to about 1.1 µM and inactive = higher.

CCOc1ccccc1N1CSc2nnc(-c3ccccc3)n2C1 | > 100 µM (inactive)
C/C(=N/NS(=O)(=O)c1ccc(C)cc1)c1cccc[n+]1[O-] | > 100 µM (inactive)

Q. Kindly state the measured GI50 obtained for "O=C(NO)c1ccc(O)c(O)c1" with UACC-257.
A. > 100 µM (inactive)

###

Test system: HOP-18
Assay: NCI tumour cell line growth inhibition, 48 h
Calls of active or inactive are those of the source. Rule as the data show it: active = GI50 up to about 1.1 µM and inactive = higher.
Reported values of GI50 for individual entries

Some entries whose results are on file:
C/C(=N/NS(=O)(=O)c1ccc(C)cc1)c1cccc[n+]1[O-] | > 100 µM (inactive)
CN1C(=O)CC2(C)c3cc(C=O)ccc3N(C)C12 (stereo not drawn) | > 100 µM (inactive)

Q. Can you look up the measured GI50 of COC(=O)C1CCC(N2C(=O)CCC2C(=O)OC)=N1 (stereo not drawn) for me?
A. > 100 µM (inactive)

###

System: PC-3
Test: NCI tumour cell line growth inhibition, 48 h
The source made the active and inactive calls. Rule as the data show it: active = GI50 up to about 1.1 µM and inactive = higher.
# output must be one of active, inactive

These recorded examples may help you get a feel for the data.
N#Cc1c(=O)c2ccccc2n2c1[nH]c1ccccc12 | inactive
COc1ccccc1C(=O)c1ccc2ccccc2c1 | inactive
Cc1cc(N(CCC#N)CCC#N)ccc1/C=C(\NC(=O)/C=C/c1ccccc1)C(=O)Nc1ccc(Cl)cc1 | active
CCCCCCCCCCCCCCCCCCNc1nc(=O)n(C2CC(O)C(COP(=O)(O)OCC(COP(=O)(O)OC3C(CO)OC(n4ccc(N)nc4=O)C3O)OCCCCCCCCCCCCCCCCCC)O2)cc1F (stereo not given) | inactive

Let's switch to this molecule now.
Q. I would be grateful if you could indicate the recorded call for "CC(=O)O[C@H]1C[C@H]2C(=S)Nc3ccccc3C(=S)N2C1" .
A. inactive

###

A short record of GI50 observed with HCT-15 follows.

Some entries whose results are on file:
COC(=O)C(N)CCCC(N)C(=O)NC(C)C(=O)NC(CCC(=O)NCCNCCNc1c2ccccc2nc2cccc([N+](=O)[O-])c12)C(N)=O (stereo not drawn) | 14.2 µM
c1ccc(C2=C(c3ccccc3)P(c3ccccc3)C2)cc1 (stereo not drawn) | > 100 µM
NC(=O)Nc1n[nH]c(-c2ccccc2)n1 | > 100 µM
NC(=O)Cc1ncn(-c2ccccc2)n1 | > 100 µM
N#CCCN(C1=NN(C(=O)CC(=O)Nc2ccc(Cl)cc2)C(c2ccccc2)C1)c1ccc(Cl)cc1 (stereo not drawn) | > 100 µM

Q. Can you look up the measured GI50 of "CS(=O)(=O)OCCN(CCOS(C)(=O)=O)c1ccc(C=O)cc1" for me?
A. 9.84 µM

Q. Can you look up the measured GI50 of "CSc1c(C#N)c(O)nc(N)c1C(=O)Nc1ccc(Cl)cc1" for me?
A. 11.5 µM

Q. Can you look up the measured GI50 of "COc1ccccc1NC(=S)N/N=C1\C(=O)Nc2ccccc21" for me?
A. > 100 µM

###

System: HOP-62
Experiment: NCI tumour cell line growth inhibition, 48 h
Activity calls are given as the source filed them. Cut-off read from the data, not from the text of the source: active = GI50 up to about 1.1 µM and inactive = higher.
measured-parameter: GI50

COc1ccc(NC(=O)C2C(=O)N(c3ccc(OC)cc3)C(=O)/C2=N\NC(N)=O)cc1 (stereo not given) | 16.3 µM (inactive)
CCn1c(=O)nc2n(-c3ccc(SC)cc3)c3ccccc3nc-2c1=O | > 100 µM (inactive)
Cc1nc(C(N)=S)sc1C(=O)C/C(=N/N)C(=O)Nc1ccc(Cl)cc1 | 50.8 µM (inactive)
O=C(CC(=O)c1ccccc1NC1=Cc2ccccc2C(=O)C1=O)C(=O)NC1=C(Cl)C(=O)c2ccccc2C1=O | 4.79 µM (inactive)

Could you now consider this next compound?
Q. Can you look up the measured GI50 of CCOC(=O)C(C(=S)Nc1ccccc1)c1nn2c(=O)cc(C)nc2s1 (stereo not given) for me?
A. 65 µM (inactive)

###

Tested on: U-251
Assay: NCI tumour cell line growth inhibition, 48 h
Activity calls are given as the source filed them. Rule as the data show it: active = GI50 up to about 1.1 µM and inactive = higher.
# output must be one of active, inactive

CCOC(=O)C(NC(=O)CC)(Nc1ccc(F)c(Cl)c1)C(F)(F)F (configuration not stated) | inactive
C/C=C(\C)c1cc(=O)c2c(C)cc3c(c2o1)C(=O)c1c(O)c(C2CC(C)(N(C)C)C(OC(C)=O)C(C)O2)cc(C2CC(N(C)C)C(O)C(C)O2)c1C3=O (configuration not stated) | active
CSC(C1c2ccccc2N(C)C2=NC(=O)N(C)C(=O)C21Cl)S(=O)(=O)c1ccc(C)cc1 (configuration not stated) | inactive
O=c1sc(-c2nc3ccccc3[nH]2)c(/N=C/c2ccccc2)n1-c1ccccc1 | inactive

Q. I would be grateful if you could indicate the recorded call for "CCN1C(=O)C(=C/C=C/c2ccc(N(CC)CC)cc2)C(=O)N(CC)C1=S" .
A. inactive

Q. I would be grateful if you could indicate the recorded call for CCOC(=O)C1COc2cc(-c3cc(=O)c4ccccc4o3)ccc2O1 (configuration not stated) .
A. inactive

Q. I would be grateful if you could indicate the recorded call for "C(=N\CCCN1CCN(CCC/N=C/c2cccc3ccccc23)CC1)/c1cccc2ccccc12" .
A. inactive

Q. I would be grateful if you could indicate the recorded call for NC1CC(=O)c2csc(Br)c21 (configuration not stated) .
A. inactive

Q. I would be grateful if you could indicate the recorded call for "O=C1Cc2nc(CO)c(CO)c(CO)c2CO1" .
A. inactive

###

Tested on: SW-620
Assay: NCI tumour cell line growth inhibition, 48 h
The source made the active and inactive calls. Rule as the data show it: active = GI50 up to about 1.1 µM and inactive = higher.
measured-parameter: GI50

Q. Can you look up the measured GI50 of C#CC(O)/C=C/CCCCCCC#CC/C=C\CC#CCCCCCCCCC(O)C#C (stereo unspecified) for me?
A. 3.5 µM (inactive)

Q. Can you look up the measured GI50 of COC(=O)CCC(=O)C(CC(=O)OC)C(=O)CCC(=O)NCCc1ccccc1 (stereo unspecified) for me?
A. > 100 µM (inactive)

Q. Can you look up the measured GI50 of "CC(=O)NCCCCNCCCNC(C)=O" for me?
A. > 100 µM (inactive)

Q. Can you look up the measured GI50 of "O=C(N/N=C/c1ccccc1O)N/N=C/c1ccccc1O" for me?
A. > 100 µM (inactive)

Q. Can you look up the measured GI50 of CC(=O)OCC1OC(n2cnc3nc(Br)[nH]c(=O)c32)C(OC(C)=O)C1OC(C)=O (stereo unspecified) for me?
A. > 100 µM (inactive)

Q. Can you look up the measured GI50 of "CSc1c(C#N)c(O)nc(N)c1C(=O)Nc1ccc(Cl)cc1" for me?
A. 5.65 µM (inactive)

###

Tested on: HL-60
Experiment: NCI tumour cell line growth inhibition, 48 h
Active and inactive are the calls of the source. Rule as the data show it: active = GI50 up to about 1.1 µM and inactive = higher.
# output must be one of Y for active, N for inactive

These recorded examples may help you get a feel for the data.
COc1cc2nc(-c3cccs3)nc(N3CCN(c4ccccc4C(F)(F)F)CC3)c2cc1OC | N
COc1ccc2[nH]c3c([N+](=O)[O-])ccc(Cl)c3c(=O)c2c1 | N
NC1CC(=O)c2csc(Br)c21 (stereo not drawn) | N

Q. I would be grateful if you could indicate the recorded call for "O=c1c(Sc2c(SCSc3cnc4ccccc4c3Sc3c[nH]c4ccccc4c3=O)cnc3ccccc23)c[nH]c2ccccc12" .
A. Y

Q. I would be grateful if you could indicate the recorded call for "COC(=O)NCCc1n[nH]c2c1C(=O)C=C(Nc1ccccc1OC)C2=O" .
A. N

Q. I would be grateful if you could indicate the recorded call for "Cc1cccc(O)c(=O)c1" .
A. N

Q. I would be grateful if you could indicate the recorded call for COC(=O)[C@]1(C)C(OC)=CC(=O)C2C1[C@H]1CCC[C@@H]21 (stereo partly drawn) .
A. N
